Data provenance is patent US20250346602A1.

- testTarget: IL-17A/A (Homo sapiens)
- experimentalDetails: IL-17A/A HEK-Blue cell assay
- conditionSummary: HEK-Blue IL-17A reporter cell line (HEK 293), IL-17A/A stimulation, 20 hours incubation, SEAP read at A630
- Procedure: The HEK-Blue IL-17A reporter cell line (Fisher #NC1408637) was used for cell-based IL-17A/A inhibition assays. Cells were grown and prepared for assays according to the manufacturer's instructions. […] Media from the cells is then added to a development reagent (Quanti-Blue Substrate, Fisher #NC9711613), and read at A630. […]
# IC50 listing for each entry below

Answered examples (3):
{"compound": "CC(C)n1nccc1C(=O)N[C@H](c1cn2nc(CC3C[C@@H](C(F)(F)F)CNC3=O)ccc2n1)[C@H]1CCCC(F)(F)C1 (stereo partly shown)", "testTarget": "IL-17A/A (Homo sapiens)", "IC50": "< 0.1 µM"}
{"compound": "C[C@H]1CC[C@H]([C@H](NC(=O)c2nonc2N)c2cn3nc(CC4C[C@@H](C(F)(F)F)CNC4=O)ccc3n2)CC1 (stereo partly shown)", "testTarget": "IL-17A/A (Homo sapiens)", "IC50": "> 1 µM"}
{"compound": "CCn1nccc1C(=O)N[C@H](c1cn2nc(CC3C[C@@H](C(F)(F)F)NC3=O)ccc2n1)C(C1CC1)C1CC1 (single isomer, unassigned) [Compound 15]", "testTarget": "IL-17A/A (Homo sapiens)", "IC50": "> 1 µM"}

// next entry
input: What value of IC50 has been recorded for this entry: Cc1nonc1C(=O)N[C@H](c1cn2nc(C[C@H]3C[C@@H](C(F)(F)F)NC3=O)ccc2n1)C(C1CC1)C1CC1
output: > 1 µM

* * *

# IC50 listing for each entry below
- testTarget: IL-17A/A (Homo sapiens, UniProt Q16552)
- Sequence (Q16552 24-155): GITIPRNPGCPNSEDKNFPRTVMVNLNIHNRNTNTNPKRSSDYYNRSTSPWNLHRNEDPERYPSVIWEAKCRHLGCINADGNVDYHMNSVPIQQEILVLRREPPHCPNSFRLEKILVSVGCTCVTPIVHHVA
- experimentalDetails: IL-17A/A HEK-Blue cell assay
- conditionSummary: HEK-Blue IL-17A reporter cell line (HEK 293), IL-17A/A stimulation, 20 hours incubation, SEAP read at A630

{"molecule": "CCn1nccc1C(=O)NC(c1cn2ncc(CC3CCC(C(F)(F)F)NC3=O)cc2n1)C1CCC(C)CC1 (single isomer, unassigned) [Compound 213]", "IC50": "> 1 µM"}

input: What value of IC50 has been recorded for this entry: CCn1nccc1C(=O)N[C@H](c1cn2nc(CC3C(=O)NCCC3C)ccc2n1)[C@H]1CC[C@H](C)CC1 (single isomer, unassigned) [Compound 53]
output: 0.1 to 1 µM

input: What value of IC50 has been recorded for this entry: CCn1nccc1C(=O)N[C@H](c1cn2nc(CC3C[C@@H](C(F)(F)F)NC3=O)ccc2n1)C1CCCCCC1 (single isomer, unassigned) [Compound 5]
output: < 0.1 µM
